- Measurement Target: Phosphatidylinositol 4-kinase type 2-alpha (Homo sapiens)
- Assay Method Text: qHTS for small molecular inhibitors of PI4K2A;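 further: -100% = wells without enzyme as full effect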
- Assay Setup: purified PI4K2A, ADP-Glo luminescence, 1 h; at 76.9 µM
In all, about 420,000 compounds went through this assay and about 540 (0.13%) were called active. No stated cut-off is given here; in the data, active means activity change below about -50%; inconclusive means mostly about -30% to -49%; inactive means weaker than that. For the sample, actives were picked, then their nearest neighbours and some compounds at random.
Outcome codes: yes (1) (active), no (0) (inactive)

| Compound | Class Name |
| --- | --- |
| COc1ccc2c(c1)c(C(=O)N/N=C/c1cccs1)c(C)n2C | no (0) |
| CCC1=Nc2cc(C(=O)NCC(C)c3ccccc3)ccc2Sc2ccc(C)cc21 (stereo unspecified) | no (0) |
| COc1ccc(OCCn2cc(C(=O)C3CCCCC3)c3ccccc32)cc1 | no (0) |
| Cn1c(-c2ccco2)nc2cc3ccccc3cc21 | yes (1) |
| Cc1n[nH]c(=O)nc1N/N=C/c1cccs1 | yes (1) |
| COC(=O)/C=C(/C)N | no (0) |
| O=C(O)/C(=C/c1c(C(=O)O)[nH]c2cc(Cl)cc(Cl)c12)c1ccccc1 | no (0) |
| Cc1ccc(-c2cn3c(n2)sc2cc(C(=O)NCCCc4ccccc4)ccc23)cc1 | no (0) |
| CCOC(=O)c1c(C)[nH]c(C)c1S(=O)(=O)N1CCC(C(=O)Nc2ccc(C)c(Cl)c2)CC1 | no (0) |
| CC(C)Sc1oc(-c2cccs2)nc1S(=O)(=O)c1ccc(Cl)cc1 | no (0) |
| CCN1CCN(CCCNC(=O)c2ccc3c(c2)sc2nc(-c4ccc(OC)cc4)cn23)CC1 | yes (1) |

---

- Measurement Target: Phosphatidylinositol 4-kinase type 2-alpha (Homo sapiens)
- Assay Method Text: qHTS for small molecular inhibitors of PI4K2A;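 further: -100% = wells without enzyme as full effect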
- Assay Setup: purified PI4K2A, ADP-Glo luminescence, 1 h; at 76.9 µM
The campaign covered roughly 420,000 compounds. About 540 (0.13%) were called active. Cut-off read from the data, not from the text of the source: active = activity change below about -50%; inconclusive = mostly about -30% to -49%; inactive = weaker than that. The sample as a whole holds a higher share of actives than the screen did.
Possible outcomes: active, inactive

| Molecule | Class Name |
| --- | --- |
| COc1ccc(-c2nc3ccccc3o2)cc1NC(=O)c1cc([N+](=O)[O-])ccc1N1CCOCC1 | inactive |
| COc1cc(OC)c(OC)cc1/C=C/c1nc2cc3ccccc3cc2c(=O)n1-c1ccc(F)c(Cl)c1 | inactive |
| Cc1ccc(S(=O)(=O)c2cn(Cc3ccccc3)c3cc(N4CCCC4)c(F)cc3c2=O)c(C)c1 | inactive |
| CCc1ccc(CN(Cc2ccco2)C(=O)COc2ccc(Cl)c(C)c2)cc1 | inactive |
| O=C(Oc1ccc(-c2nc(-c3ccccn3)no2)cc1)c1ccccc1 | active |
| O=C(Cn1c(=O)n(Cc2cccs2)c(=O)c2cccnc21)Nc1ccc(F)cc1 | inactive |
| COC(=O)c1cc(NC(=O)CCS(=O)(=O)c2cc(Br)cc3c2N(C(=O)C2CC2)CC3)cc(C(=O)OC)c1 | inactive |
| CCc1ccccc1NC(=O)Cc1ccc(NC(=O)N2CCCCc3ccccc32)cc1 | inactive |
| O=C(COc1cccc(F)c1)Oc1ccc(C(=O)c2ccccc2)cc1 | inactive |
| O=C(NCc1ccc(F)cc1)c1ccc(Cn2c(SCc3ccc(F)cc3)nc3cccnc32)cc1 | inactive |
| Cc1[nH][nH]c(=O)c1C(c1ccc(-c2ccc(Cl)cc2)o1)c1c(C)[nH][nH]c1=O | inactive |
| CC(=O)c1ccc(NC(=O)COc2ccccc2-c2nc(-c3ccccc3)no2)cc1 | inactive |
| Cc1ccc(NC(=O)Cn2cnc3nc4c(cc3c2=O)CCCC4)cc1Cl | inactive |
| C=CC1(C)CC(=O)C2(O)C(C)(O1)C(OC(C)=O)C(O)C1C(C)(C)CCC(O)C12C (stereo not given) | inactive |
| Cc1nonc1C(=O)N/N=C/c1ccc(O)cc1 | active |
| CCCCCn1c(=O)[nH]c2cc(C(=O)Nc3ccc(F)cc3)ccc2c1=O | inactive |
| CCc1ccccc1NC(=O)c1ccc(F)c(S(=O)(=O)NC2CCCCCC2)c1 | inactive |
| CC(C)Oc1ccc(/C=N/NC(=O)c2nnn(-c3nonc3N)c2CN(C)C2CCCCC2)cc1 | inactive |
| Oc1ccc(Cn2cc[nH]c2=S)cc1 | inactive |
| O=C(CC1C(=O)N(c2ccccc2)C(=O)N1CCc1cccs1)Nc1ccc(F)cc1 (stereo not given) | inactive |

---

- Measurement Target: Phosphatidylinositol 4-kinase type 2-alpha (Homo sapiens) (UniProt Q9BTU6)
- Sequence (Q9BTU6 whole entry, looked up): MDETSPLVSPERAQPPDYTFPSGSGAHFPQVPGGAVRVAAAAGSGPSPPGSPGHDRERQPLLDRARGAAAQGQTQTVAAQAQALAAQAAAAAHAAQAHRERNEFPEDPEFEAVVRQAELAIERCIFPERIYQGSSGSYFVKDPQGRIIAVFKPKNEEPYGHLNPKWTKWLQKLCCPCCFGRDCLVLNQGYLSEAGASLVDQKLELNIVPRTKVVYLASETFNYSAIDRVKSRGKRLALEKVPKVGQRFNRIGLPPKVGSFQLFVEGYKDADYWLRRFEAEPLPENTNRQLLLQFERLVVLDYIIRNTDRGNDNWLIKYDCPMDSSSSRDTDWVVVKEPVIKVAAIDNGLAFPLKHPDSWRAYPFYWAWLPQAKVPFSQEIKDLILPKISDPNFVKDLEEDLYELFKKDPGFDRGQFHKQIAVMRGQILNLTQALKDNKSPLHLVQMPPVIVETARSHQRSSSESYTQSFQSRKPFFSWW
- Assay Method Text: qHTS for small molecular inhibitors of PI4K2A;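 further: -100% = wells without enzyme as full effect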
- Assay Setup: purified PI4K2A, ADP-Glo luminescence, 1 h; at 76.9 µM, stronger effect = lower value
The whole screen tested about 420,000 compounds, of which about 540 (0.13%) were called active. Shown is part of a subset that was picked to be rich in actives.
Reported activity change, negative = inhibition values for the following compounds.
Measurement Name: activity change, negative = inhibition (%)

| Compound | Unit Descriptor | Reported |
| --- | --- | --- |
| COc1cccc(C(=O)Nc2ccc3oc(-c4ccc5ccccc5c4)nc3c2)c1 | % | -2.82 |
| COc1cccc(C(=O)c2cc3ccc(O)cc3oc2=O)c1 | % | -61.7 |
| COc1ccc(CNC(=O)c2cc3cccc(OC)c3oc2=O)cc1 | % | 3.69 |
| CCOC(=O)c1cc2c(=O)n3ccccc3nc2n(CCCOC)c1=NC(=O)C(C)(C)Oc1ccc(Cl)cc1 | % | -2.85 |
| O=C(OCC(O)CO)c1ccccc1Nc1ccnc2c(C(F)(F)F)cccc12 (stereo not given) | % | 0.766 |
| CO[C@]1(NC(=O)CSC(F)F)C(=O)N2C(C(=O)O)=C(CSc3nnnn3CCO)CO[C@H]21 | % | -0.764 |
| CCCCC12CN3CC(C)(CN(C1)C3c1ccc(O)c(OC)c1)C2=O (stereo not given) | % | 0.484 |
| CC(=O)c1c(C)n(S(=O)(=O)c2ccc(Cl)cc2)c2ccc(NS(=O)(=O)c3ccc(Cl)cc3)cc12 | % | 2.95 |
| Cc1ccc2ncc(C(=O)Nc3ccc(OC(F)(F)F)cc3)c(=O)n2c1 | % | -0.27 |
| CSc1ccccc1N1CCN(CCCCCC(=O)NC2CCCc3ccccc32)CC1 (stereo not given) | % | 3.17 |

---

- Measurement Target: Phosphatidylinositol 4-kinase type 2-alpha (Homo sapiens)
- Assay Method Text: qHTS for small molecular inhibitors of PI4K2A;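 further: -100% = wells without enzyme as full effect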
- Assay Setup: purified PI4K2A, ADP-Glo luminescence, 1 h; at 76.9 µM
Out of some 420,000 compounds screened, about 540 (0.13%) were called active. Cut-off read from the data, not from the text of the source: active = activity change below about -50%; inconclusive = mostly about -30% to -49%; inactive = weaker than that. The list comes from a sample in which actives are over-represented; it also holds close analogues and randomly drawn compounds.
Classes used: 1 for active, -1 for inactive

| Structure Notation | Class Name |
| --- | --- |
| Cc1ccc(CNC(=O)CSc2c(C)cnc3c2c(=O)n(C)c(=O)n3C)cc1 | -1 |
| CC1(C)S[C@@H]2[C@H](N=CN3CCCCCC3)C(=O)N2[C@H]1C(=O)O | -1 |
| CCOCCCNC(=O)c1c(NC(=O)Cc2coc3ccc(C)cc23)sc2c1CCC2 | -1 |
| CCc1ccccc1NC(=O)c1sc2nc3c(cc2c1N)CN(Cc1ccccc1)CC3 | -1 |
| O=C1/C(=C\c2ccc([N+](=O)[O-])cc2)CS(=O)(=O)C/C1=C/c1ccc([N+](=O)[O-])cc1 | 1 |
| O=C(CSc1cn(CC(=O)N2CCOCC2)c2ccccc12)Nc1ccccc1 | -1 |
| CCOc1cc(-c2nnc(SCC(=O)NC3CCCC3)nc2-c2ccc(OC)c(OCC)c2)ccc1OC | -1 |
| CCc1ccc(NC(=O)CCS(=O)(=O)c2cc3c(cc2Cl)NC(=O)CO3)cc1 | -1 |
| CCCCN(C)CCCNC(=O)CN1N=C(c2ccc(OC)cc2)CCC1=O | -1 |

---

- Measurement Target: Phosphatidylinositol 4-kinase type 2-alpha (Homo sapiens) (UniProt Q9BTU6)
- Assay Method Text: qHTS for small molecular inhibitors of PI4K2A;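 further: -100% = wells without enzyme as full effect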
- Assay Setup: purified PI4K2A, ADP-Glo luminescence, 1 h; at 76.9 µM, stronger effect = lower value
Out of some 420,000 compounds screened, about 540 (0.13%) were called active. Many of the other results were omitted from the sample, so actives are more common in it than they were.
Measurement Name: activity change, negative = inhibition (%)

| Compound | Measurement Target | Unit Descriptor | Reported |
| --- | --- | --- | --- |
| CC1(C)O[C@@H]2[C@H](O1)[C@@H](CO)O[C@H]2n1c(N2CCCCC2)nc2c(N)ncnc21 | Phosphatidylinositol 4-kinase type 2-alpha (Homo sapiens) (UniProt Q9BTU6) | % | -54.5 |
| Cc1cccc(-c2nnc(SCC(=O)N3CCCc4ccccc43)o2)c1 | Phosphatidylinositol 4-kinase type 2-alpha (Homo sapiens) (UniProt Q9BTU6) | % | 1.17 |
| CCOc1ccc(N/C=C/C(=O)c2ccccc2)cc1 | Phosphatidylinositol 4-kinase type 2-alpha (Homo sapiens) (UniProt Q9BTU6) | % | -50.8 |
| CC(C)CNc1ncnc2c1nnn2C | Phosphatidylinositol 4-kinase type 2-alpha (Homo sapiens) (UniProt Q9BTU6) | % | 1.45 |
| CCCn1ccc2c(OCC(=O)NCc3ccc(F)cc3)cccc2c1=O | Phosphatidylinositol 4-kinase type 2-alpha (Homo sapiens) (UniProt Q9BTU6) | % | 1.12 |
| Cc1ccccc1NC(=O)c1cc2c([nH]c1=O)CC(C)(C)CC2=O | Phosphatidylinositol 4-kinase type 2-alpha (Homo sapiens) (UniProt Q9BTU6) | % | -0.508 |
| Cc1ccc(C(=O)Nc2ccccc2F)cc1S(=O)(=O)N1CCOCC1 | Phosphatidylinositol 4-kinase type 2-alpha (Homo sapiens) (UniProt Q9BTU6) | % | -6.24 |
| CCOC(=O)c1cccc(NS(=O)(=O)c2cc(-c3cnc(C)o3)ccc2OC)c1 | Phosphatidylinositol 4-kinase type 2-alpha (Homo sapiens) (UniProt Q9BTU6) | % | -9.3 |
| CCc1ccc(NC(=O)c2cnc3c(-c4ccccc4)c(C)nn3c2C)cc1 | Phosphatidylinositol 4-kinase type 2-alpha (Homo sapiens) (UniProt Q9BTU6) | % | 0.0021 |
| CCc1ccc2ncc3c(-c4ccc(C)cc4)nn(CC(=O)NCc4ccccc4)c3c2c1 | Phosphatidylinositol 4-kinase type 2-alpha (Homo sapiens) (UniProt Q9BTU6) | % | 8.2 |
| CCOC(=O)c1ccc(NC(=O)Cn2cc(S(=O)(=O)Cc3ccccc3F)c3ccccc32)cc1 | Phosphatidylinositol 4-kinase type 2-alpha (Homo sapiens) (UniProt Q9BTU6) | % | -0.867 |
| COc1ccc(OC)c(NC(=O)C2CCCN(S(=O)(=O)c3ccc4c(c3)CCCC(=O)N4)C2)c1 (stereo not drawn) | Phosphatidylinositol 4-kinase type 2-alpha (Homo sapiens) (UniProt Q9BTU6) | % | -2.64 |
| CN1CC[C@H](c2c(O)cc(O)c3c(=O)cc(-c4ccccc4Cl)oc23)[C@H](O)C1 | Phosphatidylinositol 4-kinase type 2-alpha (Homo sapiens) (UniProt Q9BTU6) | % | -3.75 |

Hey, just so you know, these numbers are from PubChem BioAssay AID1346378.
